Item-by-item account of Mean Encapsulation Efficiency (%)
PROTOCOL_TEXT: RNA encapsulation efficiency of LNPs by Ribogreen assay
Format: physicochemical
CONDITION_DESCRIPTION: LNP of 47.5% Ionizable Lipid:40% cholesterol:2.5% PEG-2000 DMG:10% DPSC, N/P ratio 4-8

| COMPOUND | Mean Encapsulation Efficiency (%) |
| --- | --- |
| CC/C=C\CCCCOC(CCC(=O)OCCC(CCOC(=O)CCC(OCCCC/C=C\CC)OCCCC/C=C\CC)OC(=O)OCCCN(C)CC)OCCCC/C=C\CC | 89.9 |
| CCCCCCCCOC(CCC(=O)OCCC(CCOC(=O)CCC(OCCCCCCCC)OCCCCCCCC)OC(=O)OCC1CCCN(CC)C1)OCCCCCCCC (stereo not drawn) | 72.6 |
| CC/C=C\CCCCOC(CCC(=O)OCCC(CCOC(=O)CCCCCCC/C=C\C/C=C\CCCCC)OC(=O)OCCCN(C)CC)OCCCC/C=C\CC (stereo not drawn) | 86.7 |
| CCCCC/C=C\C/C=C\CCCCCCCC(=O)OCCC(CCOC(=O)CCC(OCCCCCCCC)OCCCCCCCC)OC(=O)OCCCN(C)CC (stereo not drawn) | 86.1 |
| CC/C=C\CCCCOC(CCC(=O)OCCCC(CCCOC(=O)CCCCCCC/C=C\C/C=C\CCCCC)OC(=O)OCC1CCCN(CC)C1)OCCCC/C=C\CC (stereo not drawn) | 86.4 |
| CCCCC/C=C\C/C=C\CCCCCCCC(=O)OCCC(CCOC(=O)CCC(OCCCCCCCC)OCCCCCCCC)OC(=O)OCC1CCCN(CC)C1 (stereo not drawn) | 86.3 |
